- studyTarget: T1, MC1 R71A (Methanosarcina thermophila CHTI55, UniProt P12770 1-93, R71A)
- T1 sequence: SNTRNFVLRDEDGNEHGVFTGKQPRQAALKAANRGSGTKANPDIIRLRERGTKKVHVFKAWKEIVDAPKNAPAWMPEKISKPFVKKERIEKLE
- protocolNotes: EMSA; EMSA: 10 mM Tris-HCl pH 7.5, 150 mM NaCl, 1 mM EDTA, 15 ug/ml BSA, 8% glycerol, 15 min at 20 C, 0.1 nM DNA, TBE gel; NMR PRE: 10 mM phosphate pH 6, 100 mM NaCl, 10% D2O
- appliedConditions: protein: recombinant; label: 5'-32P on one strand; blunt
pKd: −log10 of the molar value.
attributeMeasured: pKd

- binder: "26 bp EMSA duplex (dsDNA) DNA 1: GCCTCAAAAACACACACCCCCGACAG DNA 2: CTGTCGGGGGTGTGTGTTTTTGAGGC"
  readoutValue: 8.44
